Reference source for all entries: patent US20250332300A1

Reported pKd values for the following compounds.
Target System: mouse HER2 (23-653) (Mus musculus)
Assay: Surface plasmon resonance (SPR) for assessment of peptide affinity, mouse HER2
Type: binding
Parameters: mouse HER2 (23-653) using a Cy5 labeled peptide as a probe; made in house
Structures can show the parent of a compound that is named as a salt. Positions of bridges follow the written chain, without caps; N, C: chain ends. Non-standard residues stand in square brackets, D forms with d. Residues, ends and D or L forms follow the SMILES beside them. Trp(5-OH) = N[C@@H](Cc1c[nH]c2ccc(O)cc12)C(=O)O; NMePhe(4-F) = CN[C@@H](Cc1ccc(F)cc1)C(=O)O; NMehPhe = CN[C@@H](CCc1ccccc1)C(=O)O; Gly(cPr) = N[C@H](C(=O)O)C1CC1; NMeDap = CN[C@@H](CN)C(=O)O; NMeS = CN[C@@H](CO)C(=O)O
Please report pKd as the negative decimal logarithm of the molar concentration, giving only the number.

Below, each entry is followed by its recorded pKd result.
compound="CN1C(=O)[C@H](CO)NC(=O)[C@H](Cc2ccc(O)cc2)NC(=O)[C@@H](N)CCC(=O)NC[C@@H](C(=O)N(C)[C@@H](Cc2ccc(F)cc2)C(N)=O)N(C)C(=O)[C@H](C2CC2)NC(=O)[C@H](Cc2c[nH]c3ccccc23)NC(=O)[C@H](Cc2c[nH]c3ccc(O)cc23)NC(=O)[C@H](CCCCNC(=O)C(F)(F)F)N(C)C(=O)[C@@H]1CCc1ccccc1 [Example A33, TFA salt]" target_system="mouse HER2 (23-653) (Mus musculus)" measured_number=7.64
compound="CN1C(=O)[C@H](Cc2ccc(O)cc2)NC(=O)[C@@H](N)CCC(=O)NC[C@@H](C(=O)N(C)[C@@H](Cc2ccc(F)cc2)C(N)=O)N(C)C(=O)[C@H](C2CC2)NC(=O)[C@H](Cc2c[nH]c3ccccc23)NC(=O)[C@H](Cc2c[nH]c3ccc(O)cc23)NC(=O)[C@H](CO)N(C)C(=O)[C@H](CCc2ccccc2)N(C)C(=O)[C@@H]1CO [Example A38, TFA salt] (H-EY[NMeS][NMehPhe][NMeS][Trp(5-OH)]W[Gly(cPr)][NMeDap][NMePhe(4-F)]-NH2; lactam 1-9)" target_system="mouse HER2 (23-653) (Mus musculus)" measured_number=7.17

Consider COCCOCCOCCOCCOCCOCCOCCOCCOCCOCCOCCOCCC(=O)N[C@H]1CCCC(=O)NC[C@@H](C(=O)N(C)[C@@H](Cc2ccc(F)cc2)C(=O)N[C@@H](CCCCNC(=O)c2ccc([N+](C)(C)C)nc2)C(N)=O)N(C)C(=O)[C@H](C2CC2)NC(=O)[C@H](Cc2c[nH]c3ccccc23)NC(=O)[C@H](Cc2c[nH]c3ccc(O)cc23)NC(=O)[C@H](CCCCNC(C)=O)N(C)C(=O)[C@H](CCc2ccccc2)N(C)C(=O)[C@H](CO)NC(=O)[C@H](Cc2ccc(O)cc2)NC1=O [Example F4, TFA salt] . Its measured pKd is 10.00

---

Target System: mouse HER2 (23-653) (Mus musculus, UniProt P70424)
Assay: TR-FRET competition assay for peptide potency, mouse HER2
Assay type: binding
Parameters: mouse HER2 (23-653) using a Cy5 labeled peptide as a probe; made in house; host or cells: mammalian cells
Condition Info: value in parentheses (**): recalculated after further repetition; read-out: moHER2 TR-FRET IC50, recalculated value achieved after further repetition
Outcome Measure: pIC50
Please report pIC50 as the negative decimal logarithm of the molar concentration, giving only the number.

Consider CC(=O)NCCCC[C@H]1C(=O)N[C@@H](Cc2c[nH]c3ccc(O)cc23)C(=O)N[C@@H](Cc2c[nH]c3ccccc23)C(=O)N[C@@H]([C@H](C)O)C(=O)N(C)[C@H](C(=O)N(C)[C@@H](Cc2ccc(F)cc2)C(=O)N[C@@H](CCCCNC(=O)CN2CCN(CC(=O)O)CCN(CC(=O)O)CCN(CC(=O)O)CC2)C(N)=O)CNC(=O)CC[C@H](NC(C)=O)C(=O)N[C@@H](Cc2ccc(O)cc2)C(=O)N[C@@H](CO)C(=O)N(C)[C@@H](CCc2ccccc2)C(=O)N1C [Example C25] . Its measured pIC50 is 8.43
